- method_notes: Pharmacokinetic properties in C57 male mice, single dose (plasma, LC-MS/MS)
- Type: in vivo
- experimental_setup: mouse, plasma, oral administration 5 mg/kg, read-out: Mean residence time MRTPO
measured_property: MRT (h)
Answers are plain numbers, in h.

Input: Please look at this compound and report its MRT: CN(C)C(=O)N[C@H]1CC[C@H](CCN2CCN3c4cccc5[nH]cc(c45)C[C@H]3C2)CC1 [(−)-I-10]
Output: 1.49

====

- tested_system: dopamine D2 receptors (Homo sapiens (Human))
- Sequence (P14416 whole entry): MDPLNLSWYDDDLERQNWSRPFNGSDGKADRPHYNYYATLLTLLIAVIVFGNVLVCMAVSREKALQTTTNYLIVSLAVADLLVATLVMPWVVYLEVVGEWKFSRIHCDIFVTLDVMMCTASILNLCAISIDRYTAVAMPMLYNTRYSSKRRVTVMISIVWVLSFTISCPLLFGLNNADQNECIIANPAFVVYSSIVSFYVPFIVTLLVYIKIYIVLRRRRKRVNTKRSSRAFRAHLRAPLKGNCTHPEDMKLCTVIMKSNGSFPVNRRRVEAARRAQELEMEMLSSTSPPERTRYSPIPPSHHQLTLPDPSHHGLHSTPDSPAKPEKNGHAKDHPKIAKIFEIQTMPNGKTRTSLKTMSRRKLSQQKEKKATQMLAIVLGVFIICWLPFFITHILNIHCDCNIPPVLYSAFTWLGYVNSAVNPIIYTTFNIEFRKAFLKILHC
- method_notes: β-arrestin2 recruitment BRET, dopamine D2 receptor functional activity
- Assay type: cell-based
- experimental_setup: relative to the endogenous ligand dopamine; read-out: β-arrestin2 BRET Emax % ± SEM
Kindly supply the reported Emax values for the records listed here.

The examples below pair each entry with its known result.
INSERT INTO measurements (compound, measured_property, result_value) VALUES
  ('O=c1ccc2ccc(OCCCN3CCN4c5cccc6[nH]cc(c56)CC4C3)cc2[nH]1 (stereo not shown) [Compound I-8]', 'Emax', '98%'),
  ('c1cc2c3c(c[nH]c3c1)CC1CN(CCCOc3ccc4c(c3)OCO4)CCN21 (stereo not shown) [Compound I-9]', 'Emax', '96%'),
  ('CN(C)C(=O)N[C@H]1CC[C@H](CCN2CCN3c4cccc5[nH]cc(c45)C[C@H]3C2)CC1 [(−)-I-10]', 'Emax', '89%'),
  ('O=c1ccc2ccc(OCCCCN3CCN4c5cccc6[nH]cc(c56)CC4C3)cc2[nH]1 (single isomer, unassigned; (+)) [(+)-I-2]', 'Emax', '89%'),
  ('Cn1cc2c3c(cccc31)N1CCN(C/C=C/COc3ccc4c(c3)NC(=O)CC4)CC1C2 (stereo not shown) [Compound I-22]', 'Emax', '32%'),
  ('CN(C)C(=O)N[C@H]1CC[C@H](CCN2CCN3c4cccc5c4c(cn5C)CC3C2)CC1 (stereo partly shown) [Compound I-19]', 'Emax', '34%');

Input: Please look at this compound and report its Emax: CN(C)C(=O)N[C@H]1CC[C@H](CN2CCN3c4cccc5[nH]cc(c45)CC3C2)CC1 (stereo partly shown) [Compound I-16]
Output: 90%

====

- method_notes: Brain permeability in C57 male mice (plasma and brain tissue concentration)
- Format: in vivo
- experimental_setup: mouse, brain, ip, intraperitoneal injection 1 mg/kg, read-out: Drug concentration at 2.0 h in brain
measured_property: concentration at 2 h (ng/mL)
One number for each entry, in ng/mL.

Input: Please look at this molecule and report its concentration at 2 h: CN(C)C(=O)N[C@H]1CC[C@H](CCN2CCN3c4cccc5[nH]cc(c45)C[C@H]3C2)CC1 [(−)-I-10]
Output: 42.7

====

- method_notes: Brain permeability in C57 male mice (plasma and brain tissue concentration)
- Assay type: in vivo
- experimental_setup: mouse, brain, intravenous injection 1 mg/kg, read-out: Drug concentration at 2.0 h in brain
measured_property: concentration at 2 h (ng/mL)
Answers are plain numbers, in ng/mL.

Input: Please look at this compound and report its concentration at 2 h: CN(C)C(=O)N[C@H]1CC[C@H](CCN2CCN3c4cccc5[nH]cc(c45)C[C@H]3C2)CC1 [(−)-I-10]
Output: 77

====

- method_notes: Pharmacokinetic properties in C57 male mice, single dose (plasma, LC-MS/MS)
- Assay type: in vivo
- experimental_setup: mouse, plasma, intravenous injection 1 mg/kg, read-out: Mean residence time MRTPO
measured_property: MRT (h)
Give bare numbers, in h.

Input: Please look at this compound and report its MRT: CN(C)C(=O)N[C@H]1CC[C@H](CCN2CCN3c4cccc5[nH]cc(c45)C[C@H]3C2)CC1 [(−)-I-10]
Output: 1.04
